property measured: melting point

These recorded examples may help you get a feel for the data.
molecule: Fc1ccc2c(CN3CCN(c4ccc(Cl)cc4)CC3)n[nH]c2c1
melting point: 217 to 219 °C
//
molecule: CC1(C)COC(=O)N1c1nc(-c2ccc(C#N)c(F)c2)cs1
melting point: 204 to 206 °C
//
molecule: COC(=O)Cc1ccc(OCCNC(=O)C2Cc3ccccc3N2S(=O)(=O)c2ccc(-c3ccc(F)cc3OC)cc2)cc1 (stereo not drawn)
melting point: 70 to 75 °C
//
molecule: CCOC(=O)C(C(=O)OCC)C(Cc1cc(C(F)(F)F)ccc1N)c1ccccc1Cl (stereo not drawn)
melting point: 74 to 76 °C
//
molecule: Cc1[nH]c(/C=C2\C(=O)Nc3cc(NC(=O)c4c[nH]cc(-c5ccc(F)cc5)c4=O)ccc32)c(C)c1CC(=O)N1CCOCC1
melting point: 235 °C
//
molecule: CCc1cccc(NS(=O)(=O)c2ccc(N3CCNC3=O)cc2)c1
melting point: 188 to 190 °C
//
molecule: O=C(O)c1cccc(-c2nc(-c3ccc(F)c(F)c3)cs2)c1
melting point: 255 to 256 °C
//
molecule: COc1ccc2c(=O)c(C(N)=O)cn(C)c2c1
melting point: 304 to 306 °C

Please report melting point for the following molecule: CN(C)C(=S)SC(C[N+](=O)[O-])c1ccc2c(c1)OCO2 (stereo not drawn)
122 to 124 °C

Please report melting point for the following molecule: CC(C)c1nc(CN)n(C)c1Sc1cccc([N+](=O)[O-])c1
77 to 78 °C

Please report melting point for the following molecule: COc1c(C)cc(C)c(C2CC(=O)C=C(O)C2)c1C (stereo not drawn)
165 to 166 °C

Reference source: a melting point compilation (Tetko et al.; mined from patent text by program, amines drawn as free bases though some values may be those of a salt)
